The values you see were collected from PubChem BioAssay AID743279.

Reported activity change by item:
# RUN DESCRIPTION: qHTS for Inhibitors of Inflammasome Signaling: IL-1-beta AlphaLISA Primary Screen; also: % is scaled to controls: 0 for no effect and ±100 for the full control effect
# COND: THP-1 LPS/ATP IL-1B secretion, 16 h; at 57.5 µM, active compounds read low
About 17,000 (4.7%) of roughly 360,000 compounds were called active. About 5% were inconclusive and are not listed. What follows is part of a selection rich in actives, with near analogues and random picks from the rest.
Provide only the numeric value, understood in %.

Sample answers from the record:
1) COC(=O)C(NC(=O)c1ccc(OC)cc1)(Nc1ncc(S(=O)(=O)c2ccc([N+](=O)[O-])cc2)s1)C(F)(F)F (stereo not given); -99.1
2) O=C(CCCN1C(=O)/C(=C\c2ccccc2)SC1=S)Nc1ccccc1O; -71.6
3) COc1ccc(NS(=O)(=O)c2ccc(C(=O)Nc3c(C)n(C)n(-c4ccccc4)c3=O)cc2)cc1; -16.8
4) CN(C)c1ccc(/C=N/NC(=O)C(O)c2ccc(Br)cc2)cc1 (stereo not given); -3.94
5) CC(C(=O)Nc1ccc(O)c(C(=O)O)c1)N1C(=O)/C(=C/c2cccs2)SC1=S (stereo not given); 3.56
6) O=C(c1ccc(CS(=O)(=O)c2ccccc2)o1)N1CCN(c2ccccc2)CC1; 41.8
7) COc1ccc(C(=O)NCCNc2ccc([N+](=O)[O-])cn2)cc1; 40.6
8) CCCC(C)n1[nH]c(=O)c2c(C)cc(C)nc21 (stereo not given); -13.2
9) COc1ccc(C2NC(=O)c3ccccc3N2)cc1 (stereo not given); -24.2
10) CC(=O)C1=CCC(c2ccccc2)N(S(=O)(=O)c2ccc(C)cc2)C1 (stereo not given); 0

The compound identified as COC(=O)CN1C(C)=Nc2ccc(Br)cc2C1c1ccccc1 (stereo not given) registered its activity change at -27.1

The recorded activity change for entry CCN(CC)P(=O)(Nc1ccc(SC(F)F)cc1)c1ccc(N(C)C)cc1NC(=O)c1ccco1 (stereo not given) equals -50.2

Looking up CCCCCCn1c(=O)n2n(c1=O)C[C@]1(OC(=O)NCc3ccc(OC)c(OC)c3)CN(S(=O)(=O)c3ccc(C)cc3)C[C@]1(O)C2 , I see its activity change listed as -2.71

Looking up O=C(CCCN1C(=O)/C(=C/c2cccs2)SC1=S)Nc1ccc(O)cc1 , I found its activity change recorded as -71.2

Noted for CN(C)c1ccc(/C=N/NC(=O)c2ccc(Cn3cc(Br)cn3)o2)cc1 : its activity change reads -53

The compound identified as O=C(COC(=O)c1ccccc1NC(=O)c1ccco1)Nc1ccc2c(c1)OC(F)(F)O2 registered its activity change at 22.1

* * *

# RUN DESCRIPTION: qHTS for Inhibitors of Inflammasome Signaling: IL-1-beta AlphaLISA Primary Screen
# COND: THP-1 LPS/ATP IL-1B secretion, 16 h; at 57.5 µM, active compounds read low
# Description: Inflammasomes are a set of intracellular multi-protein complexes that enable autocatalytic activation of inflammatory caspases and drive the innate immune response to counter harmful agents. […] A qHTS assay, based on AlphaLISA technology, was developed to screen the Molecular Libraries Small Molecule Repository (MLSMR) to look for novel inflammasome inhibitors. The assay detects IL-1B using AlphaLISA anti-IL-1B acceptor and donor beads. […]
About 17,000 (4.7%) of roughly 360,000 compounds were called active. Another 5% or so got no clear call; they are omitted. The entries come from a sample that favours actives as a whole.
RECORDED ENDPOINT: activity change

1) Cc1ccc(Nc2nc(CSc3nnc(-c4ccncc4)n3-c3ccccc3C)cs2)cc1; -74.1% (active)
2) CC1CCCN(CCOCCOc2ccccc2-c2ccccc2)C1 (configuration not stated); -6.75% (inactive)
3) Cc1cc(C)c2cc(CN(Cc3nnnn3Cc3ccc(F)cc3)C3CCCC3)c(=O)[nH]c2c1; 7.62% (inactive)
4) COC(=O)c1cc2c(N)c(C(=O)c3ccc(Cl)cc3)sc2nc1C(OC)OC; -7.51% (inactive)
5) Cc1cccc(NC(=S)N2CCC(C(=O)c3ccc(F)cc3)CC2)c1; -26.4% (inactive)

Measured activity change, O=c1c2c(nc3cc(-c4cccc(Cl)c4)[nH]n13)CCCC2 : -102% (active)

activity change reading for Cc1nc2c(OCc3ccc(Cl)cc3)cccn2c1N(C)Cc1cccs1 : -66.3% (active)

What the record says about CC1CN(CCOc2ccccc2[N+](=O)[O-])CC(C)O1 (configuration not stated) : activity change is 7.14% (inactive)

activity change recorded for this compound, Cc1nc2nc3c(cn2n1)C(=O)CC(c1ccccc1)C3 (configuration not stated) , is 20.9% (inactive)

Reported activity change of C[C@H](O)[C@@H]1C(=O)N2CCc3ccc(N4CCOCC4)cc3[C@@H]2C[C@@H]1N(C)C(=O)C(C)(C)C : 0% (inactive)

According to the records, this compound CC(C)(C)C(=O)Nc1cccc(-c2ccc[nH]2)n1 displays activity change of -1.09% (inactive)

Entry under test: CCC(C)C(CO)NC(=O)/C=C/[C@H]1O[C@@H](n2cnc3c(NC(=O)c4ccccc4)ncnc32)[C@H](O)[C@@H]1O (some centres not stated) . Its activity change was -22% (inactive)
